Recorded values, source patent US11931431B2.

system: PSMA^+ PC-3 PIP tumors; experiment: MicroPET/CT imaging of mice transplanted with prostate cancer cell lines; format: in vivo, nude mouse; conditions: 10 min after injection
measurement.name: intake of mouse organ: Liver (% ID/g)
Provide only the numeric value, understood in % ID/g.

Illustrative cases are given below, each with its answer.
compound	endpoint.unit	reading
O=C(O)CCC(NC(=O)NC(CCCCN(CC(=O)O)C(=O)COCCOCCNC(=O)C(CCCCNC(=O)CCCc1ccc(I)cc1)NC(=O)CN1CCN2CCN3CCN(CC1)CC(=O)[O][68Ga]([O]C(=O)C2)[O]C(=O)C3)C(=O)O)C(=O)O (stereo not shown) [[^68Ga]1h]	% ID/g	14.96
O=C(O)CCC(NC(=O)NC(CCCCN(CC(=O)O)C(=O)COCCOCCNC(=O)CN1CCN2CCN3CCN(CC1)CC(=O)[O][68Ga]([O]C(=O)C2)[O]C(=O)C3)C(=O)O)C(=O)O (stereo not shown) [[^68Ga]1e]	% ID/g	4.76
Cc1ccc(CCCC(=O)NCCCCC(NC(=O)CN2CCN3CCN4CCN(CC2)CC(=O)[O][68Ga]([O]C(=O)C3)[O]C(=O)C4)C(=O)NCCOCCOCC(=O)N(CCCCC(NC(=O)NC(CCC(=O)O)C(=O)O)C(=O)O)CC(=O)O)cc1 (stereo not shown) [[^68Ga]1g]	% ID/g	9.55

Query compound follows.
# intake of mouse organ: Liver lookup, item O=C(O)CCC(NC(=O)NC(CCCCN(CC(=O)O)C(=O)COCCNC(=O)C(CCCCNC(=O)CCCc1ccc(I)cc1)NC(=O)CN1CCN2CCN3CCN(CC1)CC(=O)[O][68Ga]([O]C(=O)C2)[O]C(=O)C3)C(=O)O)C(=O)O (stereo not shown) [[^68Ga]1k]
11.99

---

Reported Ki is given for each of the following molecules.
molecular target: PSMA (Homo sapiens, UniProt Q04609); test: Measurement of binding capacity: competition with [^125I]30 on 22RV1 cells; design: host or cells: 22RV1 human prostate cancer cells; details: 22RV1 cells, [^125I]30 0.1 nM, 37° C., 2 hours; read-out: Ki value
Sequence (Q04609 whole entry): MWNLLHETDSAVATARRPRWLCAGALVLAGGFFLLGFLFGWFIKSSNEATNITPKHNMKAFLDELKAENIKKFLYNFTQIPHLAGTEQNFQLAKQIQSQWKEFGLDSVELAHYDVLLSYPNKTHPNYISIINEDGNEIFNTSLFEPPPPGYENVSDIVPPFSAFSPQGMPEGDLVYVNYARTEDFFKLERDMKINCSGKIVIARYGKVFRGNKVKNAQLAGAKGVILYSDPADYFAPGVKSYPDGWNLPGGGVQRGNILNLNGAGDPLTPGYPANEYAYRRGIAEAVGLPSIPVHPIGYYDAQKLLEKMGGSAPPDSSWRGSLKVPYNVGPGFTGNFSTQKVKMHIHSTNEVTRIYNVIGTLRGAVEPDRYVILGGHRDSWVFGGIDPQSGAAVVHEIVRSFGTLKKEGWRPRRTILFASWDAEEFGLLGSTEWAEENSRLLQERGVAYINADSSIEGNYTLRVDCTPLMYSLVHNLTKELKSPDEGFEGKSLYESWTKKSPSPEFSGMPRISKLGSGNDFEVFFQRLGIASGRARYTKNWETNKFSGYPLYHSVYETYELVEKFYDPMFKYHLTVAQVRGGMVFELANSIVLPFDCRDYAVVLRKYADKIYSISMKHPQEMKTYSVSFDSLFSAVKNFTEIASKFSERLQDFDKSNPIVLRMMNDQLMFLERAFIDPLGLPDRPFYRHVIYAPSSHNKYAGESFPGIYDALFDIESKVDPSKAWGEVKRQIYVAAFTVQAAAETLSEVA
Provide only the numeric value, understood in nM.

molecule	reading
O=C(O)CCC(NC(=O)NC(CCCCN(CC(=O)O)C(=O)COCCOCCNC(=O)CN1CCN2CCN3CCN(CC1)CC(=O)[O][Ga]([O]C(=O)C2)[O]C(=O)C3)C(=O)O)C(=O)O (centres unmarked) [Ga-1e]	12.9

# Ki lookup, item O=C(O)CC[C@H](NC(=O)N[C@@H](CCCCN(CC(=O)O)C(=O)COCCOCCNC(=O)[C@H](CCCCNC(=O)CCCc1ccccc1)NC(=O)CN1CCN2CCN3CCN(CC1)CC(=O)[O][Ga]([O]C(=O)C2)[O]C(=O)C3)C(=O)O)C(=O)O [Ga-1f]
8.12

Further, for O=C(O)CC[C@H](NC(=O)N[C@@H](CCCCN(CC(=O)O)C(=O)COCCNC(=O)CN1CCN2CCN3CCN(CC1)CC(=O)[O][Ga]([O]C(=O)C2)[O]C(=O)C3)C(=O)O)C(=O)O [Ga-1i] ?
14.4

Further, for O=C(O)CC[C@H](NC(=O)N[C@@H](CCCCNC(=O)N(Cc1cn(CCOCCNC(=O)CN2CCN3CCN4CCN(CC2)CC(=O)[O][Ga]([O]C(=O)C3)[O]C(=O)C4)nn1)c1ccncc1)C(=O)O)C(=O)O [Ga-1b] ?
18.7

Further, for O=C(O)CC[C@H](NC(=O)N[C@@H](CCCCNC(=O)NCc1cn(CCOCCNC(=O)CN2CCN3CCN4CCN(CC2)CC(=O)[O][Ga]([O]C(=O)C3)[O]C(=O)C4)nn1)C(=O)O)C(=O)O [Ga-1a] ?
69.9
